Origin of the recorded values: patent US8962630B2

Molecular target: CDK1/cyclin B (Homo sapiens (Human))
Sequence (P06493 whole entry, species assumed): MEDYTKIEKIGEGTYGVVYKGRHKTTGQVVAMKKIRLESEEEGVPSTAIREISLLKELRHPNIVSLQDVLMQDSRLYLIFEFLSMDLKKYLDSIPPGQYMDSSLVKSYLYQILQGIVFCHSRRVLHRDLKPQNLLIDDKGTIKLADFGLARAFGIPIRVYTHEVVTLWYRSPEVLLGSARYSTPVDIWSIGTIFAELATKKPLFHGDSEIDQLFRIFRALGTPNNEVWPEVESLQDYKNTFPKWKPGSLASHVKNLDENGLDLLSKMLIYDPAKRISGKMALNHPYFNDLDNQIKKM
Sequence (P14635 whole entry partner, species assumed): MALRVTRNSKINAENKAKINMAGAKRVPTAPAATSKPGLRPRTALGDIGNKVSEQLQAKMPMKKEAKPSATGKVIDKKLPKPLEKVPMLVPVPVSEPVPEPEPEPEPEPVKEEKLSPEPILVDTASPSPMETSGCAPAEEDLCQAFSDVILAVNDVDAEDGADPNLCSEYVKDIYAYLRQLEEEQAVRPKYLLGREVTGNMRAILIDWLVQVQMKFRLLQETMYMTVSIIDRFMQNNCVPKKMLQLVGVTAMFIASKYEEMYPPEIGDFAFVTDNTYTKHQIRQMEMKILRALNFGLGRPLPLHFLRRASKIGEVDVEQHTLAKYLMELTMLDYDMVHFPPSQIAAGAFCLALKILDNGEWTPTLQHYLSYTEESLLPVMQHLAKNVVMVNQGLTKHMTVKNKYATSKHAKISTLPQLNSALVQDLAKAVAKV
Experiment: CDK1/Cyclin B enzymatic activity assay (IMAP-FP)
Format: biochemical
Details: Table 2; 20 μM ATP; read-out: CDK1
quantity_measured: IC50

- molecule: "CC(C)CCCN1CCN(c2ccc(Nc3ncc4cc(C(=O)N(C)C)n(C5CCCC5)c4n3)nc2)CC1"
  quantity_measured: "IC50"
  assay_value: "> 15 µM"
- molecule: "c1ncc(-c2cc3cnc(Nc4ccc(CN5CCNCC5)cn4)nc3n2C2CCCC2)o1"
  quantity_measured: "IC50"
  assay_value: "1.1 µM"
- molecule: "CN(C)C(=O)c1cc2cnc(Nc3ccc(N4CCN(C(=O)C5CC5)CC4)cn3)nc2n1C1CCCC1"
  quantity_measured: "IC50"
  assay_value: "> 15 µM"

Enquiry: Quick check: IC50 of `CN(C)C(=O)c1cc2cnc(Nc3ccc(N4CCN(C(=O)CCC5CCCC5)CC4)cn3)nc2n1C1CCCC1` ?
Return: > 15 µM

Enquiry: Quick check: IC50 of `CN(C)C(=O)c1cc2cnc(Nc3ccc(N4CCN(CCCO)CC4)cn3)nc2n1C1CCCC1` ?
Return: > 15 µM

---

Biological target: CDK4/cyclin D1 (Homo sapiens (Human))
Sequence (P11802 whole entry): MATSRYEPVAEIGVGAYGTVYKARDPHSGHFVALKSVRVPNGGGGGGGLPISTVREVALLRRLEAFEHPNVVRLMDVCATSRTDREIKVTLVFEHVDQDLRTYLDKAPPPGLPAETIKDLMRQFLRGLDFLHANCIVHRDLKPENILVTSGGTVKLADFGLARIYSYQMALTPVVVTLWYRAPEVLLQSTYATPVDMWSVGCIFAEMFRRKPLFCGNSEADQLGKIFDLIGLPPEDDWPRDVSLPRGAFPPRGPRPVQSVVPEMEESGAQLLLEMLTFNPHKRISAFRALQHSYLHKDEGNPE
Sequence (P24385 whole entry partner): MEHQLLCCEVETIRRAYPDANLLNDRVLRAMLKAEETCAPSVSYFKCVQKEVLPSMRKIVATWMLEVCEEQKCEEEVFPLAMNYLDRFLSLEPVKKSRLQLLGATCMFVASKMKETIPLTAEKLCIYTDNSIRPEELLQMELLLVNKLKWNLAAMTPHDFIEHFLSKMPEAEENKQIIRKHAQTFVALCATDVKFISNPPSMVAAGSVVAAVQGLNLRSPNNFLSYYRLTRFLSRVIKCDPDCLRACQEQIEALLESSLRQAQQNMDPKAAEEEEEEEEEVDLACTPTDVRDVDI
Assay: CDK4/Cyclin D1 enzymatic activity assay (Lance TR-FRET)
Assay type: biochemical
Details: Table 2; 3 μM ATP; read-out: CDK4
quantity_measured: IC50

Before answering, review these 3 worked examples.
- molecule: "CN(C)C(=O)c1cc2cnc(Nc3ccc(N4CCOCC4)cn3)nc2n1C1CCCC1 [Example 110]"
  IC50: "100 to 1000 nM"
- molecule: "CN(C)C(=O)c1cc2cnc(Nc3ccc(N4CCN(C(=O)CC5CCCCC5)CC4)cn3)nc2n1C1CCCC1 [Example 90]"
  IC50: "10 to 100 nM"
- molecule: "CC(C)OCCN1CCN(c2ccc(Nc3ncc4cc(C(=O)N(C)C)n(C5CCCC5)c4n3)nc2)CC1 [Example 95]"
  IC50: "10 to 100 nM"

Enquiry: Item: CCC(C)CN1CCN(c2ccc(Nc3ncc4cc(C(=O)N(C)C)n(C5CCCC5)c4n3)nc2)CC1 (stereo not shown) [Example 99] Test system: CDK4/cyclin D1 (Homo sapiens (Human)) Read-out: IC50 Value: ?
Return: 10 to 100 nM

---

Target: CDK2/cyclin A (Homo sapiens (Human), UniProt P24941)
Assay: CDK2/Cyclin A enzymatic activity assay (IMAP-FP)
Type: biochemical
Settings: Table 2; read-out: CDK2
pIC50: −log10 of the molar value.
Form field: pIC50 (one value per entry).

Before answering, review these 5 worked examples.
- given_smiles: "CN(C)C(=O)c1cc2cnc(Nc3ccc(C(=O)N(C)C4CCNCC4)cn3)nc2n1C1CCCC1"
  tgt: "CDK2/cyclin A (Homo sapiens (Human), UniProt P24941)"
  assay_value: "< 4.82"
- given_smiles: "CN(C)C(=O)c1cc2cnc(Nc3ccc(CN4CCN(C)C(=O)C4)cn3)nc2n1C1CCCC1"
  tgt: "CDK2/cyclin A (Homo sapiens (Human), UniProt P24941)"
  assay_value: "< 4.82"
- given_smiles: "c1ncc(-c2cc3cnc(Nc4ccc(CN5CCNCC5)cn4)nc3n2C2CCCC2)o1"
  tgt: "CDK2/cyclin A (Homo sapiens (Human), UniProt P24941)"
  assay_value: 5.55
- given_smiles: "CN(C)C(=O)c1cc2cnc(Nc3ccc(N4CCN(CC5CCCCC5)CC4)cn3)nc2n1C1CCCC1"
  tgt: "CDK2/cyclin A (Homo sapiens (Human), UniProt P24941)"
  assay_value: "< 4.82"
- given_smiles: "CN(C)C(=O)c1cc2cnc(Nc3ccc(CN4CCN(S(C)(=O)=O)CC4)cn3)nc2n1C1CCCC1"
  tgt: "CDK2/cyclin A (Homo sapiens (Human), UniProt P24941)"
  assay_value: "< 4.82"

Enquiry: Item: `CN(C)C(=O)c1cc2cnc(Nc3ccc(C(=O)N4CCC(N(C)C)CC4)cn3)nc2n1C1CCCC1` Test system: CDK2/cyclin A (Homo sapiens (Human), UniProt P24941) Read-out: pIC50 Value: ?
Return: < 4.82

Enquiry: Item: `CN(C)C1CCN(c2ccc(Nc3ncc4cc(C#N)n(C5CCCC5)c4n3)nc2)CC1` Test system: CDK2/cyclin A (Homo sapiens (Human), UniProt P24941) Read-out: pIC50 Value: ?
Return: 5.08

Enquiry: Item: `CN(C)C(=O)c1cc2cnc(Nc3ccc(C(=O)N(C)CCN)cn3)nc2n1C1CCCC1` Test system: CDK2/cyclin A (Homo sapiens (Human), UniProt P24941) Read-out: pIC50 Value: ?
Return: 5.33
